Measured pIC50 by item
target: HLA-DRB1*01:01 (Homo sapiens, UniProt P01903+P01911, A100R/D57E/F55L/F60I/F76Y/I96L/L162R/M171V/P40L/Q125E/R42F/V115G/Y59C); construct: EBV transformed homozygous cell lines were used as sources of MHC molecules; endogenous in cells; host or cells: EBV transformed homozygous cell lines; assay: HLA class II peptide binding, inhibition of radiolabeled peptide binding to purified MHC; settings: read-out: IC50 DRB1*01:01; for IC50 DRB1*01:01: competition with radiolabeled peptide (0.1–1 nM)
pIC50: −log10 of the molar value. Ends that are not written are not given here.
observation-type: pIC50

- sequence-input: "SAVRLRSSVPGVR [Vimentin 66–78 WT]"
  relation-sign: "="
  quantitative-readout: 5.49
- sequence-input: "NQDFTNRINKLKNS [Fibrinogen 78–91 WT]"
  relation-sign: "<"
  quantitative-readout: 4.52
- sequence-input: "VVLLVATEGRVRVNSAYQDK [Aggrecan 84–103 WT]"
  relation-sign: "="
  quantitative-readout: 6.81
- sequence-input: "LQYMRADQAAGGLR [Collagen II 1236–1249 WT]"
  relation-sign: "="
  quantitative-readout: 7.09

----------
target: HLA-DRB1*01:01 (Homo sapiens, UniProt P01903+P01911, A100R/D57E/F55L/F60I/F76Y/I96L/L162R/M171V/P40L/Q125E/R42F/V115G/Y59C); construct: EBV transformed homozygous cell lines were used as sources of MHC molecules; endogenous in cells; host or cells: EBV transformed homozygous cell lines; assay: HLA class II peptide binding, inhibition of radiolabeled peptide binding to purified MHC; details: wild-type (unmodified Arg) 15-mer peptide; purified HLA-DRB1*01:01; read-out: DRB1*01:01 binding capacity, WT peptide (IC50 nM)
Ends that are not written are not given here.
observation-type: log10 of IC50 (log10 of the value in nM)

- sequence-input: "GAQGLQGPRGLPGTP [Collagen 711 WT]"
  log10 of IC50: 2.55
- sequence-input: "MIRLGAPQTLVLLTL [Collagen 1 WT]"
  log10 of IC50: 2.50
- sequence-input: "AGEPGERGLKGHRGF [Collagen 1121 WT]"
  log10 of IC50: 1.93
- sequence-input: "LVAAVLRCQGQDVQE [Collagen 16 WT]"
  log10 of IC50: 1.32
- sequence-input: "TGFPGAAGRVGPPGS [Collagen 896 WT]"
  log10 of IC50: 2.63

----------
target: HLA-DRB1*04:01 (Homo sapiens, UniProt P01903+P01911, A100K/A169T/F76Y/I96L/K127E/L162R/M171V/N62H/P40V/Q125Y/R42H/S133A/S149N/S66Y/V115G/V209L/W38E); construct: EBV transformed homozygous cell lines were used as sources of MHC molecules; endogenous in cells; host or cells: EBV transformed homozygous cell lines; assay: HLA class II peptide binding, inhibition of radiolabeled peptide binding to purified MHC; details: citrullinated 15-mer (X); purified MHC, inhibition of radiolabeled peptide binding; dash = IC50 >40,000 nM; read-out: DRB1*04:01 binding capacity, Cit peptide (IC50 nM)
Square brackets hold non-standard residues; d marks the D form. Peptide text beside a SMILES is read from it. Cit = NC(=O)NCCC[C@H](N)C(=O)O
observation-type: IC50 (nM)

- molecule: "CSCC[C@H](NC(=O)[C@H](CCCNC(=N)N)NC(=O)[C@H](CCCNC(N)=O)NC(=O)[C@@H](N)Cc1ccc(O)cc1)C(=O)N[C@@H](Cc1ccccc1)C(=O)NCC(=O)NCC(=O)N1CCC[C@H]1C(=O)NCC(=O)N[C@H](C(=O)N[C@@H](C)C(=O)N[C@@H](CO)C(=O)N[C@@H](CCCNC(=N)N)C(=O)N1CCC[C@H]1C(=O)N[C@@H](CO)C(=O)O)[C@@H](C)O [YXRMFGGPGTASRPS] (H-Y[Cit]RMFGGPGTASRPS-OH)"
  relation-sign: "="
  quantitative-readout: 27400
- molecule: "CSCC[C@H](NC(=O)[C@H](CCC(=O)O)NC(=O)[C@H](CCC(=O)O)NC(=O)[C@@H](N)CCC(=O)O)C(=O)N[C@@H](CCCNC(=N)N)C(=O)N[C@@H](CCC(=O)O)C(=O)N[C@@H](CC(C)C)C(=O)N[C@@H](CCCNC(N)=O)C(=O)N[C@@H](CCCNC(=N)N)C(=O)N[C@@H](CCC(N)=O)C(=O)N[C@H](C(=O)N[C@@H](CC(=O)O)C(=O)N[C@@H](CCC(N)=O)C(=O)N[C@@H](CC(C)C)C(=O)N[C@H](C(=O)O)[C@@H](C)O)C(C)C [EEEMRELXRQVDQLT] (H-EEEMREL[Cit]RQVDQLT-OH)"
  relation-sign: "="
  quantitative-readout: 4740
- molecule: "CSCC[C@H](NC(=O)[C@H](CCC(=O)O)NC(=O)[C@H](CCC(=O)O)NC(=O)[C@H](CCC(N)=O)NC(=O)[C@H](CC(C)C)NC(=O)[C@H](CCCCN)NC(=O)[C@H](CCC(=O)O)NC(=O)[C@@H](N)CCCNC(=N)N)C(=O)N[C@@H](CC(C)C)C(=O)N[C@@H](CCC(N)=O)C(=O)N[C@@H](CCCNC(N)=O)C(=O)N[C@@H](CCC(=O)O)C(=O)N[C@@H](CCC(=O)O)C(=O)N[C@@H](C)C(=O)N[C@@H](CCC(=O)O)C(=O)O [REKLQEEMLQXEEAE] (H-REKLQEEMLQ[Cit]EEAE-OH)"
  relation-sign: ">"
  quantitative-readout: 40000
- molecule: "CC(C)C[C@H](NC(=O)[C@H](C)NC(=O)[C@H](C)NC(=O)[C@@H](NC(=O)[C@H](CC(C)C)NC(=O)[C@H](CC(=O)O)NC(=O)[C@@H]1CCCN1C(=O)[C@H](CCCCN)NC(=O)[C@@H](N)CO)[C@@H](C)O)C(=O)N[C@@H](CCCNC(N)=O)C(=O)N[C@@H](CC(=O)O)C(=O)N[C@H](C(=O)N[C@@H](CCCNC(=N)N)C(=O)N[C@@H](CCC(N)=O)C(=O)N[C@@H](CCC(N)=O)C(=O)O)C(C)C [SKPDLTAALXDVRQQ] (H-SKPDLTAAL[Cit]DVRQQ-OH)"
  relation-sign: "="
  quantitative-readout: 30300
- molecule: "CC[C@H](C)[C@H](NC(=O)[C@H](CCCCN)NC(=O)[C@H](CC(N)=O)NC(=O)[C@H](CCC(N)=O)NC(=O)[C@H](CCC(N)=O)NC(=O)[C@H](CCC(=O)O)NC(=O)[C@H](CC(C)C)NC(=O)[C@H](Cc1ccccc1)NC(=O)[C@H](CCCNC(N)=O)NC(=O)[C@@H](NC(=O)[C@H](CCCCN)NC(=O)[C@H](CC(=O)O)NC(=O)[C@@H](NC(=O)[C@H](Cc1ccc(O)cc1)NC(=O)[C@@H](N)CC(N)=O)[C@@H](C)CC)C(C)C)C(=O)O [NYIDKVXFLEQQNKI] (H-NYIDKV[Cit]FLEQQNKI-OH)"
  relation-sign: "="
  quantitative-readout: 1210

----------
target: HLA-DRB1*01:01 (Homo sapiens, UniProt P01903+P01911, A100R/D57E/F55L/F60I/F76Y/I96L/L162R/M171V/P40L/Q125E/R42F/V115G/Y59C); construct: EBV transformed homozygous cell lines were used as sources of MHC molecules; endogenous in cells; host or cells: EBV transformed homozygous cell lines; assay: HLA class II peptide binding, inhibition of radiolabeled peptide binding to purified MHC; settings: citrullinated 15-mer peptide (X = citrulline); purified HLA-DRB1*01:01; read-out: DRB1*01:01 binding capacity, Cit peptide (IC50 nM)
Square brackets hold non-standard residues; d marks the D form. Peptide text beside a SMILES is read from it. Cit = NC(=O)NCCC[C@H](N)C(=O)O
Recorded IC50 for the following compounds

- compound: "CC[C@H](C)[C@H](NC(=O)[C@@H](NC(=O)[C@H](CC(=O)O)NC(=O)[C@H](CCC(N)=O)NC(=O)[C@H](Cc1ccc(O)cc1)NC(=O)[C@H](CC(N)=O)NC(=O)[C@H](C)NC(=O)[C@H](C)NC(=O)[C@H](CCC(=O)O)NC(=O)[C@@H](NC(=O)[C@H](C)NC(=O)[C@@H](N)Cc1ccccc1)C(C)C)[C@@H](C)O)C(=O)NCC(=O)N[C@@H](CCCNC(N)=O)C(=O)N[C@@H](CC(C)C)C(=O)O [FAVEAANYQDTIGXL] (H-FAVEAANYQDTIG[Cit]L-OH)"
  IC50: "642 nM"
- compound: "CC[C@H](C)[C@H](NC(=O)[C@@H](N)CCSC)C(=O)N[C@@H](CCCNC(N)=O)C(=O)N[C@@H](CC(C)C)C(=O)NCC(=O)N[C@@H](C)C(=O)N1CCC[C@H]1C(=O)N[C@@H](CCC(N)=O)C(=O)N[C@H](C(=O)N[C@@H](CC(C)C)C(=O)N[C@H](C(=O)N[C@@H](CC(C)C)C(=O)N[C@@H](CC(C)C)C(=O)N[C@H](C(=O)N[C@@H](CC(C)C)C(=O)O)[C@@H](C)O)C(C)C)[C@@H](C)O [MIXLGAPQTLVLLTL] (H-MI[Cit]LGAPQTLVLLTL-OH)"
  IC50: "15 nM"
